Data origin: ChEMBL document CHEMBL4673279

- assay-notes: Cytotoxicity against human WSUDLCL2 cells assessed as reduction in cell viability after 48 hrs by CCK8 assay
- Assay type: functional, cell-based
- condition-summary: WSUDLCL2, 48 h
observed-property: pIC50
Lab note — pIC50 values are minus log10 of concentrations in M.

pIC50 recorded for this compound, COc1c(OC)c2c3c(nccc3c1-c1cccc(C)c1)C(c1cccc(C)c1)=CN2 , is 5.89

* * *

Measured pIC50 accompanies every entry in the list below.
- assay-notes: Cytotoxicity against human SNK6 cells assessed as reduction in cell viability after 48 hrs by CCK8 assay
- Format: functional, cell-based
- condition-summary: SNK6, 48 h
Value format note: pIC50 is -log10 of concentration (mol/L); just state the number.

See these solved cases before continuing.
The recorded pIC50 for entry COc1cc2ccnc3c2c(c1OC)NC=C3c1cccc(C(F)(F)F)c1 equals 5.06

pIC50 in this record for COc1c(OC)c2c3c(nccc3c1-c1ccc(C)cc1)C(c1ccc(C)cc1)=CN2 : 4.96

Input COc1cc2ccnc3c2c(c1OC)NC=C3c1ccccc1 . Output pIC50: 5.05

More entries:
# pIC50 of COc1c(OC)c2c3c(nccc3c1-c1ccc(Cl)cc1)C(c1ccc(Cl)cc1)=CN2 = 5.08
